The reported numbers originate from paper PMC9482650.

Target: T1, TIAM2, Q8IVF5
T1 sequence (Q8IVF5 885-986, limits assumed, looked up): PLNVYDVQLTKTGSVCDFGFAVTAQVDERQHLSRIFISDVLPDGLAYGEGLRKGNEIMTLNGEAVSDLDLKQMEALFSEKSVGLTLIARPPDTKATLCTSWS
Assay: holdup assay
Design: key: below the threshold = too weak to quantify, mostly under pKd 3.1 to 4
Conditions: plain residues with an end cap or a label only (N-terminal biotin on a linker: ado-ado)
measured.parameter: pKd

binder: EPAKETTTNV [SLC2A3, P11169]
result: below the threshold

binder: VISSDDLTEL [CAPN6, Q9Y6Q1]
result: 3.96

binder: MQILSKPEFI [NPSR1, Q6W5P4]
result: 4.05

binder: QQGLLPHSSC [TYRO3, Q06418]
result: below the threshold
